System: E. coli TESEC Alr+ wild-type control
Protocol: growth (OD600 after 10 h); higher = more growth (less inhibition)
Condition context: compound 0.1 mM; raw OD600 reference: median of DMSO wells 0.241, cell-free background 0.041
Counter-ions that a name gives are not always drawn.
Mark Not satisfied for growth values under 0.2, and Satisfied for everything at or above.

Below, 5 molecules whose answers are already recorded.
[[record]]
molecule = "Clc1ccc(C(Cn2ccnc2)OCc2csc3c(Cl)cccc23)c(Cl)c1 (stereo not given) [Sertaconazole nitrate]"
assigned_label = "Not satisfied"

[[record]]
molecule = "COc1ccnc(C[S+]([O-])c2nc3cc(OC(F)F)ccc3[nH]2)c1OC (stereo not given) [Pantoprazole sodium]"
assigned_label = "Not satisfied"

[[record]]
molecule = "CC(C)(C)NC[C@H](O)COc1nsnc1N1CCOCC1 [Timolol maleate salt]"
assigned_label = "Satisfied"

[[record]]
molecule = "CO/N=C(\\C(=O)N[C@@H]1C(=O)N2C(C(=O)O)=C(COC(N)=O)CS[C@H]12)c1ccco1 [Cefuroxime sodium salt]"
assigned_label = "Not satisfied"

[[record]]
molecule = "CC(C)COCC(CN(Cc1ccccc1)c1ccccc1)N1CCCC1 (stereo not given) [Bepridil hydrochloride]"
assigned_label = "Not satisfied"


Check if growth >= 0.2 (inclusive). Item: CC(NCCc1ccc(O)cc1)C(O)c1ccc(O)cc1 (stereo not given) [Ritodrine hydrochloride] Satisfied

Check if growth >= 0.2 (inclusive). Item: C=C(CC)C(=O)c1ccc(OCC(=O)O)c(Cl)c1Cl [Ethacrynic acid] Not satisfied

Check if growth >= 0.2 (inclusive). Item: Cc1ncc([N+](=O)[O-])n1CC(C)O (stereo not given) [Secnidazole] Satisfied
